These measurements were taken from PubChem BioAssay (EPA / NIEHS).

- method: STM_H9_OrnCyssISnorm_ratio: Stemina devTOX quickPredict H9 human embryonic stem cell (hESC)-based Assay for Ornithine (ORN):Cystine (CYSS) Ratio (AID 2283714)
Inconclusive results are not listed. Active and inactive are the calls of the source. The calls were made as follows: active = hit-call score of the fitted dose curve at least 0.9, where 1 is the maximum; inconclusive = response in the unintended direction; inactive = score below 0.9.
Outcome codes: active, inactive

1. CC(=O)N1CCN(c2ccc(OC[C@H]3CO[C@](Cn4ccnc4)(c4ccc(Cl)cc4Cl)O3)cc2)CC1	active
2. NC(=O)c1nc(-c2cccc(-c3cc(F)ccc3OCC(F)(F)C(F)(F)F)c2)n[nH]1	active
3. CC(C)(C)c1cc(/C=C2\SC(N)=NC2=O)cc(C(C)(C)C)c1O	active
4. Cc1cn([C@H]2C[C@H](N=[N+]=[N-])[C@@H](CO)O2)c(=O)[nH]c1=O	active
5. COc1ccc2cc(S(=O)(=O)N[C@H](CC(=O)N[C@H](Cc3ccc(CN4[C@H](C)CCC[C@@H]4C)cc3)C(=O)N(C)C(C)C)c3ccc4c(c3)OCO4)ccc2c1	active
6. O=C(Nc1ccc(Cl)cc1)Nc1ccc(Cl)c(Cl)c1	inactive
7. CN(C)C(=O)C1(N2CCCCC2)CCN(CC[C@@]2(c3ccc(Cl)c(Cl)c3)CN(C(=O)c3ccccc3)CCO2)CC1	active
8. COc1cccc([C@H](O)C2CCN(CCc3ccc(F)cc3)CC2)c1OC	active
9. Cc1c2ccccc2c(C)c2c1ccc1ccccc12	active

* * *

- Read-out: growth arrest and DNA damage 45 (GADD45B), GADD45B (gene 4616)
- method: LTEA_HepaRG_GADD45B: Life Technologies and Expression Analysis (LTEA) Assay for growth arrest and DNA damage 45 (GADD45B) using HepaRG (AID 2283461)
- recorded.conditions: mRNA level, 48 h; actives raise or lower the signal
Calls of active or inactive are those of the source. The calls were made as follows: active = hit-call score of the fitted dose curve at least 0.9, where 1 is the maximum; inactive = score below 0.9.
Outcome codes: True for active, False for inactive

1. O=c1c(-c2ccc(O)cc2)coc2cc(O)cc(O)c12	False
2. CN(C)c1ccc(C(=C2C=CC(=[N+](C)C)C=C2)c2ccc(N(C)C)cc2)cc1	True
3. CC[C@H](NC(=O)c1cc(F)ccc1NS(=O)(=O)c1cccc2cccnc12)c1ccccc1	False
4. COc1cc(C(=O)NC2CCN(C)CC2)ccc1Nc1ncc2c(n1)N(C1CCCC1)CC(F)(F)C(=O)N2C	True
5. O=C(O)c1ccccc1C(=O)OCc1ccccc1	False
6. Cc1ccc(C(C)C)cc1	False
7. CCO[Si](CCCNC(N)=O)(OCC)OCC	False
8. CN(C)C(=O)C1(N2CCCCC2)CCN(CC[C@@]2(c3ccc(Cl)c(Cl)c3)CN(C(=O)c3ccccc3)CCO2)CC1	True
9. COc1cccc([C@H](O)C2CCN(CCc3ccc(F)cc3)CC2)c1OC	False

* * *

- Read-out: CD38, CD38 (gene 952)
- method: BSK_SAg_CD38: BioMAP Diversity Plus: SAg Assay for CD38 Biomarker Activity (AID 2283087)
- recorded.conditions: primary human HUVEC with PBMC; actives raise or lower the signal
Active and inactive are the calls of the source. The calls were made as follows: active = hit-call score of the fitted dose curve at least 0.9, where 1 is the maximum; inactive = score below 0.9.
Outcome codes: Yes (active), No (inactive)

1) O=C=NCCCCCCN=C=O	No
2) O=C(O)Cc1cc(I)c(Oc2ccc(O)c(I)c2)c(I)c1	No
3) CCCOC(=O)c1cc(O)c(O)c(O)c1	No
4) CCCCOC(=O)c1ccc(O)cc1	No
5) CN(C)c1ccc(C(=C2C=CC(=[N+](C)C)C=C2)c2ccc(N(C)C)cc2)cc1	Yes

* * *

- method: APR_HepG2_StressKinase_72hr: Apredica 72-hour HepG2 Assay for Stress Kinase (AID 2282921)
- recorded.conditions: HepG2 stress kinase (phospho-c-Jun) imaging, actives raise or lower the signal
- Procedure: APR_HepG2_72hr is a cell-based, multiplexed-readout assay that uses HepG2, a human liver cell line, with measurements taken at 72 hours after chemical dosing in a 384-well plate.APR_HepG2_StressKinase_72hr is one of 10 assay component(s) measured or calculated from the APR_HepG2_72hr assay. […] This assay endpoint, APR_HepG2_StressKinase_72hr, was analyzed with bidirectional fitting relative to DMSO as the negative control and baseline of activity. […]
Calls of active or inactive are those of the source. How the source made its calls: active means hit-call score of the fitted dose curve at least 0.9, where 1 is the maximum; inactive means score below 0.9.
Outcome codes: active, inactive

1. O=c1ccc2ccccc2o1	inactive
2. CC(C)(c1cc(Br)c(O)c(Br)c1)c1cc(Br)c(O)c(Br)c1	inactive
3. COc1cccc([C@H](O)C2CCN(CCc3ccc(F)cc3)CC2)c1OC	inactive
4. O=C1CCC(C2CCCCC2)CC1	inactive
5. OCCO	inactive
6. CN(C)c1ccc(C(=C2C=CC(=[N+](C)C)C=C2)c2ccc(N(C)C)cc2)cc1	active
7. Cc1cc(F)ccc1-c1cc(N2CC[C@@H](O)[C@H]2CO)ncc1N(C)C(=O)C(C)(C)c1cc(C(F)(F)F)cc(C(F)(F)F)c1	inactive
8. CCCCCCCCOc1ccc(C(=O)c2ccccc2)c(O)c1	inactive
9. COc1cc(C(=O)NC2CCN(C)CC2)ccc1Nc1ncc2c(n1)N(C1CCCC1)CC(F)(F)C(=O)N2C	inactive
10. O=C(O)Cn1c(=O)n(Cc2ccc(Br)cc2F)c(=O)c2ccc(Cl)cc21	inactive
11. CN(C)C(=O)C1(N2CCCCC2)CCN(CC[C@@]2(c3ccc(Cl)c(Cl)c3)CN(C(=O)c3ccccc3)CCO2)CC1	inactive
12. c1ccc(C[n+]2cccc3ccccc32)cc1	active
13. C[C@]12CC[C@@H]3c4ccc(O)cc4CC[C@H]3[C@@H]1CCC2=O	inactive
14. CCO[Si](CCCNC(N)=O)(OCC)OCC	inactive
15. CCN(Cc1cccc(S(=O)(=O)O)c1)c1ccc(C(=C2C=CC(=[N+](CC)Cc3cccc(S(=O)(=O)O)c3)C=C2)c2ccccc2S(=O)(=O)[O-])cc1	inactive
16. O=C(O)Cc1cc(I)c(Oc2ccc(O)c(I)c2)c(I)c1	inactive
17. CC(O)CC(C)(C)O (stereo unspecified)	inactive
18. CO[C@H]1/C=C/O[C@@]2(C)Oc3c(C)c(O)c4c(O)c(c(/C=N/N5CCN(C)CC5)c(O)c4c3C2=O)NC(=O)/C(C)=C\C=C\[C@H](C)[C@H](O)[C@@H](C)[C@@H](O)[C@@H](C)[C@H](OC(C)=O)[C@@H]1C	inactive
19. Cc1ccc2oc(CN(Cc3ccccc3)C(=O)Nc3c(F)cc(F)cc3F)c(-c3ccc(Cl)cc3)c2c1	inactive
20. CC[C@@H]1C[C@H](N(Cc2cc(C(F)(F)F)cc(C(F)(F)F)c2)C(C)=O)c2cc(C(F)(F)F)ccc2N1C(=O)OC(C)C	inactive
21. CCCOC(=O)c1cc(O)c(O)c(O)c1	inactive
22. NC(=O)c1nc(-c2cccc(-c3cc(F)ccc3OCC(F)(F)C(F)(F)F)c2)n[nH]1	active
23. Cc1oc2c(NC(=O)c3c(Cl)cccc3Cl)cccc2c1C(C)(C)O	inactive
24. O=C(Nc1ccc(Cl)cc1)Nc1ccc(Cl)c(Cl)c1	active
25. CCN(Cc1cccnc1)C(=O)c1cccc(Cl)c1[C@]1(C)C(=O)N(Cc2ccc(OC)cc2OC)c2ccc(Cl)cc21	inactive
26. CCCC(=O)OCCC(C)C	inactive
27. CC[C@H](NC(=O)c1cc(F)ccc1NS(=O)(=O)c1cccc2cccnc12)c1ccccc1	inactive
28. Cc1cccc2ccccc12	inactive
29. CCOC(=O)O[C@H](C)OC(=O)c1ccc2c(c1)cc(C(=O)NC1CCN(C(C)C)CC1)n2Cc1cc(-c2ccc(Cl)s2)on1	inactive
30. CCN(CC)C(=O)c1cc(S(=O)(=O)Cc2ccccc2)c(N2CCC(c3ccccc3)CC2)cc1N(CC)CCN(C)C	inactive
31. CC(C)(O)c1ccc(CNC(=O)c2cccnc2Oc2ccc3nonc3c2)cc1	inactive
32. CCCCCc1ccc(N)cc1	inactive
33. COCC(C)OCC(C)OCC(C)O (stereo unspecified)	inactive
34. Oc1ccccc1	inactive
35. O=CCCCC=O	inactive
36. O=c1c(-c2ccc(O)cc2)coc2cc(O)cc(O)c12	inactive
37. CCCCCCCCCCCC[N+](C)(C)C	active
38. c1ccc2ccccc2c1	inactive
39. CCCCCCCCCC(=O)O	inactive
40. Cc1cn([C@H]2C[C@H](N=[N+]=[N-])[C@@H](CO)O2)c(=O)[nH]c1=O	inactive
41. OC12N=C(c3ccccc3)SC1Cc1cc(Cl)ccc12 (stereo unspecified)	inactive
42. c1ccc2n[nH]nc2c1	inactive
43. CCCCOC(=O)CC(CC(=O)OCCCC)(OC(C)=O)C(=O)OCCCC	active
44. Cc1cc2c(cc1C(F)(F)F)N(C(=O)Nc1ccc(Oc3cccnc3C)nc1)CC2	active
45. CCCCCCCCN(C)CCCCCCCC	inactive
46. CCCCCCCCCCCO	inactive

* * *

- Read-out: E-selectin (Homo sapiens)
- method: BSK_3C_Eselectin: BioMAP Diversity Plus: 3C Assay for Eselectin Biomarker Activity (AID 2283015);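 as to Outcome: cell surface E-selectin protein quantified by ELISA 24 h after dosing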
- recorded.conditions: primary human endothelial cells (HUVEC); actives raise or lower the signal
- Experimental: BSK_3C is a cell-based, multiplexed-readout assay that uses umbilical vein endothelium, a human vascular primary cell, with measurements taken at 24 hours after chemical dosing in a 96-well plate.BSK_3C_Eselectin is an assay component measured in the BSK_3C assay. It measures E-selectin antibody related to regulation of gene expression using ELISA technology.Data from the assay component BSK_3C_Eselectin was analyzed into 1 assay endpoint. […]
The source made the active and inactive calls. The calls were made as follows: active = hit-call score of the fitted dose curve at least 0.9, where 1 is the maximum; inactive = score below 0.9.
Outcome codes: active, inactive

1) O=c1[nH]sc2ccccc12	active
2) O=C1O[C@H]([C@@H](O)CO)C(O)=C1O	inactive
3) OC12N=C(c3ccccc3)SC1Cc1cc(Cl)ccc12 (stereo not drawn)	inactive
4) OCCO	inactive
5) NC(=O)c1nc(-c2cccc(-c3cc(F)ccc3OCC(F)(F)C(F)(F)F)c2)n[nH]1	active
6) c1ccc2n[nH]nc2c1	inactive
7) Cc1cn([C@H]2C[C@H](N=[N+]=[N-])[C@@H](CO)O2)c(=O)[nH]c1=O	inactive
8) CC(=O)N1CCN(c2ccc(OC[C@H]3CO[C@](Cn4ccnc4)(c4ccc(Cl)cc4Cl)O3)cc2)CC1	inactive
9) c1ccc(C[n+]2cccc3ccccc32)cc1	inactive
10) NCc1cccc(C2CCN(C(=O)c3ccc(C#Cc4ccccc4F)o3)CC2)c1	active
11) CCCCCCCCCC(=O)O	inactive
12) COc1cccc([C@H](O)C2CCN(CCc3ccc(F)cc3)CC2)c1OC	inactive
13) O=CCCCC=O	active
